Molecular target: Protein RecA (Mycobacterium tuberculosis)
Sequence (P9WHJ3 whole entry): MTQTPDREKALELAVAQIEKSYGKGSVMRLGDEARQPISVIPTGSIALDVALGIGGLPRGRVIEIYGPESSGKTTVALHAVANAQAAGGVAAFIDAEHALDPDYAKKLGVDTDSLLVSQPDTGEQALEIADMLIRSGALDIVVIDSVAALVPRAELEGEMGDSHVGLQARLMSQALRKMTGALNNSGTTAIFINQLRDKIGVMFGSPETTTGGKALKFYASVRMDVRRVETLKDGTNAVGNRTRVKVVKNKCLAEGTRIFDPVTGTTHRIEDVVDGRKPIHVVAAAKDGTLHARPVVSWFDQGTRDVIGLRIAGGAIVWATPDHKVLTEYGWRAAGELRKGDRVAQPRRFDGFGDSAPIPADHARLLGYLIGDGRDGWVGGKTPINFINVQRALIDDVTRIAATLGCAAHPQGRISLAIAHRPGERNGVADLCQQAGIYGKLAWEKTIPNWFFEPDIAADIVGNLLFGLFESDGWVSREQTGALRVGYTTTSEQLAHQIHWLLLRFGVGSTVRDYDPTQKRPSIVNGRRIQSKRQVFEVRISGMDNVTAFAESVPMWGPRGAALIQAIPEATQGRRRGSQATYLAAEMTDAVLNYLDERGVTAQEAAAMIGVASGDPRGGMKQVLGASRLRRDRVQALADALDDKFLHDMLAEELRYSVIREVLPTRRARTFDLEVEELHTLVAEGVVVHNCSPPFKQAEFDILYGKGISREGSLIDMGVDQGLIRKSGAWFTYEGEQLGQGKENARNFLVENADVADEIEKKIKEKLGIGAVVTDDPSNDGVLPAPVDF
Assay: Fluorescence Cell-Free Homogeneous Dose Retest to Identify Inhibitors of RecA-Intein Splicing Activity. [Related pubchem assays (depositor defined):AID2097, AID2223, AID489010, AID492950]
Type: functional
Calls of active or inactive are those of the source.
Outcome codes: active, inactive

COMPOUND: Cc1oc2cc([N+](=O)[O-])c(O)c([N+](=O)[O-])c2c1C(=O)c1ccc(Cl)cc1
CLASSIFICATION: active
--
COMPOUND: Cc1ccc(NC(=O)CSc2ncc(-c3ccccc3)n2C(=O)c2ccccc2)cc1
CLASSIFICATION: active
--
COMPOUND: CCOC(=O)c1c(NC(=O)CSc2nnc(-c3c[nH]c4ccccc34)n2CCOC)sc2c1CCCC2
CLASSIFICATION: inactive
--
COMPOUND: CC(/C=C1\SC(=S)N(NC(=O)c2cccc(O)c2)C1=O)=C\c1ccccc1
CLASSIFICATION: active
--
COMPOUND: Cc1nn(Cc2ccccc2)c2c1C(c1cccc(Cl)c1)C(C#N)=C(N)O2 (centres undefined)
CLASSIFICATION: active
--
COMPOUND: COc1cc2c(cc1OC)C1(Nc3c-2c(Cc2ccccc2)nn3-c2ccccc2)C(=O)Nc2ccccc21 (centres undefined)
CLASSIFICATION: inactive
--
COMPOUND: ClC(Cl)(Cl)c1nc2ccccc2n2nncc12
CLASSIFICATION: active
--
COMPOUND: COc1ccc(N=C(S)NC(NC(=O)CCl)C(Cl)(Cl)Cl)c([N+](=O)[O-])c1 (centres undefined)
CLASSIFICATION: active
--
COMPOUND: NNc1nnc(S)n1N
CLASSIFICATION: active
--
COMPOUND: COc1cc(N=Nc2cccc(S(N)(=O)=O)c2)c2ccccc2c1N
CLASSIFICATION: active
--
COMPOUND: Cc1ccc(S(=O)(=O)N[C@@H](CCCCN)C(=O)CCl)cc1
CLASSIFICATION: active
--
COMPOUND: CCOc1cc(CNc2ccc(O)cc2)ccc1OCc1ccc(Cl)cc1Cl
CLASSIFICATION: active
--
COMPOUND: Cc1cccc(NC(=O)c2nc(S(=O)(=O)Cc3ccccc3)ncc2Cl)c1
CLASSIFICATION: active

----------
Listed here: items and their measured AC50.
target: Replicative DNA helicase DnaB (Mycobacterium tuberculosis, UniProt P9WMR3); experiment: DnaB intein splicing inhibitors, dose response, biochemical, cell-free fluorescence (AID 449749); type: functional
Sequence (P9WMR3 1-399, added parts left off): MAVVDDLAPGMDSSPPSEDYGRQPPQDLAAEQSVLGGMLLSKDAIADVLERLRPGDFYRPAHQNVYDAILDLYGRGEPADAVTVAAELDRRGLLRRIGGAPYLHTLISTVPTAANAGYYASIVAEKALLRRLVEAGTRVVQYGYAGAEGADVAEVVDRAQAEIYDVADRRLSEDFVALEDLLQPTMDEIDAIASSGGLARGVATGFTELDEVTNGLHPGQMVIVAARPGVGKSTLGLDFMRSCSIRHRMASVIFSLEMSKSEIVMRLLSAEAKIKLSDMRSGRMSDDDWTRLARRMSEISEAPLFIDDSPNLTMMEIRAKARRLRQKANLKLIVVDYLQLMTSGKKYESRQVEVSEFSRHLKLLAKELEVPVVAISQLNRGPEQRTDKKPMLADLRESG
Active and inactive are the calls of the source.

MOLECULE: CCOc1cc(CNc2ccc(O)cc2)ccc1OCc1ccc(Cl)cc1Cl
AC50: > 380 µM (inconclusive)
--
MOLECULE: Oc1ccc(/N=C/c2ccc(O)c(O)c2)cc1
AC50: 10.5 µM (inconclusive)
--
MOLECULE: COc1cc(N=Nc2cccc(S(N)(=O)=O)c2)c2ccccc2c1N
AC50: 5.37 µM (active)
--
MOLECULE: COc1ccc(N=C(S)NC(NC(=O)CCl)C(Cl)(Cl)Cl)c([N+](=O)[O-])c1 (configuration not stated)
AC50: 28.5 µM (active)
--
MOLECULE: COc1cc2c(cc1OC)C1(Nc3c-2c(Cc2ccccc2)nn3-c2ccccc2)C(=O)Nc2ccccc21 (configuration not stated)
AC50: > 380 µM (inactive)
--
MOLECULE: CC(/C=C1\SC(=S)N(NC(=O)c2cccc(O)c2)C1=O)=C\c1ccccc1
AC50: 15 µM (active)
--
MOLECULE: NNc1nnc(S)n1N
AC50: > 380 µM (inactive)

----------
target: Cytochrome P450 2C19 (Homo sapiens, UniProt P33261); test: Cytochrome panel assay with activity outcomes. Panel member name: p450-cyp2c19 Compounds with AC50 equal or less than 10 uM are considered active; type: functional
Sequence (P33261 whole entry): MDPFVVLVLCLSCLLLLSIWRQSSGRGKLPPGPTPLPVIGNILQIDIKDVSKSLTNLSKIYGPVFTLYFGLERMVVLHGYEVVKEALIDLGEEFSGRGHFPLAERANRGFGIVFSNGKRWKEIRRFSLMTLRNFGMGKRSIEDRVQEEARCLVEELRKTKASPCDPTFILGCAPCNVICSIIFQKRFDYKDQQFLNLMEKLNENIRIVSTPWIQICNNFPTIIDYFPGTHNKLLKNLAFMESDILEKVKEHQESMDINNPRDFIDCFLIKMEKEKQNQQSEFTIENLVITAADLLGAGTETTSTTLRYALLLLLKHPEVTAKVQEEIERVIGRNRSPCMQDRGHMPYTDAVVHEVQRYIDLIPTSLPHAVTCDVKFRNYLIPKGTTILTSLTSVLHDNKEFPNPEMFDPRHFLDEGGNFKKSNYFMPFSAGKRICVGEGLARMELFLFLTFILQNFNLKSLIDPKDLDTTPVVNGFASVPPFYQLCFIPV
Let's look at some compounds and their measured AC50.

COMPOUND: O=C(COC(=O)COc1ccccc1)Nc1ccc(OC(F)(F)F)cc1
AC50: 39.8 µM (inconclusive)

COMPOUND: O=C(O)CC(c1cccc2ccccc12)n1cccc1 (configuration not stated)
AC50: 28.2 µM (inconclusive)

COMPOUND: c1ccc2c(c1)-c1nc3ccccc3cc1[C@H]2N1CCOCC1
AC50: 3.16 µM (inconclusive)

COMPOUND: CC/C(O)=C(\C#N)c1nnc2n1CCCCC2
AC50: 1 µM (inconclusive)

COMPOUND: COc1ccc(NC(=O)C(F)(F)F)cc1OC
AC50: 22.4 µM (inconclusive)

COMPOUND: c1ccc(CCCNc2nnnc3ccccc23)cc1
AC50: 3.16 µM (inconclusive)

COMPOUND: CCCNC(=O)Nc1ccc2c(c1)nc(C)n2C
AC50: 0.562 µM (inconclusive)

----------
biological target: Streptokinase A (Streptococcus pyogenes serotype M1); assay: viability-normalized secreted streptokinase activity reduction – plasminogen activation absorbance, OD405, dose response (AID 1914); type: functional, Streptococcus pyogenes M1 GAS;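 also: secreted streptokinase activity via plasminogen activation per viability signal from cell pellet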
Sequence (P10520 whole entry): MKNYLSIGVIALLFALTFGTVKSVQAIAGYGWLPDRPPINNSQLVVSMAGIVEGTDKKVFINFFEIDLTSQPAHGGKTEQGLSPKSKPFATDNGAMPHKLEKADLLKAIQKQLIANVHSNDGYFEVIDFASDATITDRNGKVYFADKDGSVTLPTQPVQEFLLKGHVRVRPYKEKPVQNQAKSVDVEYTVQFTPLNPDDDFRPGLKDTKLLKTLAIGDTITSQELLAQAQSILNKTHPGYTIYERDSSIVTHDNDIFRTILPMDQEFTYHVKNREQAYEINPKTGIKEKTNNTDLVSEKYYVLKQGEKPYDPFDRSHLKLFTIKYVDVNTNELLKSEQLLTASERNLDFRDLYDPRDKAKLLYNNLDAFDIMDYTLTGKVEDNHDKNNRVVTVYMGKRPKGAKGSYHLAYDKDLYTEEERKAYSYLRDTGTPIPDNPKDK
Calls of active or inactive are those of the source.
PROPERTY: EC50

STRUCTURE: COc1ccc(-c2n[nH]c(C)c2-c2ccc(Cl)cc2)c(O)c1
RESULT: 9.86 µM (active)

STRUCTURE: COc1cccc(-c2cc(C(F)(F)F)nc(N3CCC(C)CC3)n2)c1
RESULT: 97.6 µM (inconclusive)

STRUCTURE: O=S(=O)(Nc1cccc2cccnc12)c1ccccc1
RESULT: > 150 µM (not active)

STRUCTURE: COCCCn1c(N)c(C(=O)Nc2ccccc2)c2nc3ccccc3nc21
RESULT: > 150 µM (not active)

STRUCTURE: COc1ccc(Br)cc1S(=O)(=O)Nc1nnc[nH]1
RESULT: > 150 µM (not active)

STRUCTURE: CCCOc1ccc(Cc2c(Cl)nc(SC)nc2OC)cc1
RESULT: 57.2 µM (active)

STRUCTURE: CCOc1ccccc1NC(=O)c1nc(S(=O)(=O)Cc2ccccc2)ncc1Cl
RESULT: 1.98 µM (active)

----------
Listing of recorded AC50 by entry.
biological target: Heat shock protein HSP 90-alpha (Homo sapiens, UniProt P07900); assay type: functional, organism-based
Activity calls are given as the source filed them.

COMPOUND: CCCCCCCCCCCCCCCC[n+]1cccc(C(=O)N(CC)CC)c1
AC50: 9.18 µM (active)

COMPOUND: CN(c1ccccc1)c1ccc(/C=C/[N+](=O)[O-])cc1
AC50: 8.67 µM (active)

COMPOUND: O=C1OC(c2ccccc2)(c2cc(Br)c(O)c(Br)c2)c2ccccc21 (stereo not drawn)
AC50: 4.1 µM (active)

----------
target: Luciferin 4-monooxygenase (Photinus pyralis); assay: inhibition of purified Photinus pyralis luciferase – biochemical, luminescence, dose response (AID 1891)
Sequence (P08659 whole entry): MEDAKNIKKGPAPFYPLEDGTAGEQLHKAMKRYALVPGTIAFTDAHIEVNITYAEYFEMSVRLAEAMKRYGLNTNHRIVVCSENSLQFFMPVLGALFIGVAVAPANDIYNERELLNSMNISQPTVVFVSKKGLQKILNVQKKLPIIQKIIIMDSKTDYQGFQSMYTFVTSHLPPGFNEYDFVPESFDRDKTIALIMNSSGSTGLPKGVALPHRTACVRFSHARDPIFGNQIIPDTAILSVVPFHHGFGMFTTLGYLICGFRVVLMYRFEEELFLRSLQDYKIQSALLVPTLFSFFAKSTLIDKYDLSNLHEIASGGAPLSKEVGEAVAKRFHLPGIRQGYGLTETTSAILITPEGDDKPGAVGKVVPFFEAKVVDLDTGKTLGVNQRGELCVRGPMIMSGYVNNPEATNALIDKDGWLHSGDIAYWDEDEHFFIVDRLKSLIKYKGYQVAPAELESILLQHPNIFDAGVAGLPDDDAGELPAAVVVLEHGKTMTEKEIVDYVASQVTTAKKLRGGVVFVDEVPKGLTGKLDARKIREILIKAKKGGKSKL
Activity calls are given as the source filed them.

COMPOUND: O=C(Cn1c(S)nc2ccccc21)c1ccccc1
EC50: > 112 µM (not active)
--
COMPOUND: CC1=CS/C(=C(/C#N)C(=O)N2CCOCC2)N1c1ccccc1
EC50: > 112 µM (not active)
--
COMPOUND: CCn1cc(C(=O)N[C@@H](CCSC)C(=O)NCCCn2ccnc2)c(=O)c2cc3c(cc21)OCO3
EC50: > 112 µM (not active)
--
COMPOUND: COc1ccc(CCNC(=O)c2cc(S(=O)(=O)N3CCOCC3)cn2C)cc1OC
EC50: > 112 µM (not active)
--
COMPOUND: Cc1nc(N2CCC(C)CC2)c2oc3ccccc3c2n1
EC50: 109 µM (active)
--
COMPOUND: O=C(NCc1cccnc1)C(=O)NCC1OCCN1S(=O)(=O)c1ccccc1 (stereo unspecified)
EC50: > 112 µM (not active)
